Assign TGI to each entry below.
- System: UO-31 renal
- Assay: NCI tumour cell line growth inhibition, 48 h

Would you mind giving TGI for every compound in the list below?
1. COc1cc(N=Nc2ccc(O)c3ncccc23)c2ncccc2c1
2. COc1ccc(OCC(=O)O)c2c1CCCC2=O
3. COC(=O)C(Cc1ccc2c(c1)CCC2)Cc1ccc2c(c1)CCC2
4. O=C1c2ccccc2C(=O)N1n1c(Cc2ccc([N+](=O)[O-])cc2)n[nH]c1=O
5. Cc1cc2c(=O)c3ccccc3[nH]c2c(C(N)=O)c1C
6. COc1ccc2nc3ccccc3c(NCc3ccc(F)cc3)c2c1

output:
1: 25.3 µM; 2: > 100 µM; 3: > 100 µM; 4: > 100 µM; 5: > 100 µM; 6: 3.96 µM

Give me TGI for each of these compounds, listed below.
1. N=c1c2c(-c3ccccc3)c(-c3ccccc3)n(Cc3ccccc3)c2ncn1C1CCC(O)CC1 (stereo not drawn)
2. O=C(O)CN1CCNCCN(CC(=O)O)CCN(CC(=O)O)CCNCC1
3. C=CCCCCC1CCC2CCC(CCCCC=C)N12 (stereo not drawn)
4. O=[N+]([O-])C(=C(Nc1ccccc1)Nc1ccccc1)C(Cl)=C(Cl)Cl
5. O=C(Nc1cccc(Cl)c1)C(=O)C(C(=O)c1ccc2ccccc2c1)C1OC(=O)c2ccccc21 (stereo not drawn)

output:
["1.65 µM", "> 100 µM", "27.4 µM", "39.6 µM", "29.9 µM"]

###

- Tested on: HS 578T breast
- Assay: NCI tumour cell line growth inhibition, 48 h; in the data active = GI50 below about 0.43 µM; inactive = the rest
Could you please pick one outcome from this set? Yes = active, No = inactive

input: Which outcome was entered for the compound C[C@@H]1C[C@@H]([C@@H](CC2CC(=O)NC(=O)C2)OC(=O)CC(=O)c2ccccc2)C(=O)[C@@H](C)C1 in this test?
output: No

input: Recorded call for O=C(c1ccco1)c1c(C(F)(F)F)nc2ccc(Cl)cc2[n+]1[O-] ?
output: No

input: // return assay outcome for Clc1cc2c(c(CSc3nc4ccccc4n4cccc34)c1)OCOC2
output: No

input: What classification did CCOC(=O)Nc1cc2c(c(N)n1)N=C(c1ccccc1)CO2 end up with in this test?
output: Yes

Continuing:
input: Identify the outcome logged in this assay for the compound shown: CCn1c(O)c(/C=N/NC(=O)C(C)c2ccc(CC(C)C)cc2)sc1=S (configuration not stated)
output: Yes

input: Tell me the assay call for O=c1oc2ccc(-c3ccc(F)cc3F)cc2c(=O)n1-c1cccc(C(F)(F)F)c1 please.
output: No

input: What classification did CNCCOC(=O)/C=C1\CC[C@H]2[C@@H]([C@@H](O)C(=O)[C@@H]3[C@]2(C)CC[C@H](O)[C@]3(C)C(=O)OC)[C@H]1C end up with in this test?
output: Yes

###

- Test system: MOLT-4 leukemia
- Assay: NCI tumour cell line growth inhibition, 48 h
I'd be grateful if you could share measured TGI for these entries.

input: Hello, I am looking for reported TGI with MOLT-4 leukemia for O=C1NC(N2CCOCC2)=N/C1=C\c1ccco1 . Could you help?
output: > 100 µM

input: Enter reported TGI observed with MOLT-4 leukemia for COc1cccc(N2C(Cl)C(=O)C2c2c[nH]c3ccccc23)c1 (configuration not stated)
output: > 100 µM

input: Report TGI for NC(N)=NCCCC(=O)O tested on MOLT-4 leukemia.
output: > 100 µM

input: Find the measured TGI: item Cc1ccc(C2=CC(=O)OC(C[P+](c3ccccc3)(c3ccccc3)c3ccccc3)(c3ccccc3)O2)cc1 (configuration not stated) , target or system MOLT-4 leukemia.
output: 67 µM

input: Notebook entry, MOLT-4 leukemia assay: TGI of C=C(C(=O)OCC)C(=O)OCC = ?
output: > 100 µM

input: Quick check: TGI on MOLT-4 leukemia, item C[C@@H]1C[C@@H]([C@@H](CC2CC(=O)NC(=O)C2)OC(=O)CC(=O)c2ccccc2)C(=O)[C@@H](C)C1 ?
output: > 100 µM

input: Item: S=c1c2cn[nH]c2nc2scc(-c3ccc(Cl)cc3)n12 Test system: MOLT-4 leukemia Read-out: TGI Value: ?
output: 60.1 µM

input: Kindly state the measured TGI obtained for O=C(O)C(Cl)(Cl)Cl with MOLT-4 leukemia.
output: > 100 µM

Hi! Can you tell me TGI for each of these compounds?
1. Cn1c(SCc2ccc(F)cc2)nnc1C12CC3CC(CC(C3)C1)C2
2. CC(=NNC(=S)Nc1ccccc1)c1cccc(C(C)=NNC(=S)Nc2ccccc2)n1
3. C=C1C(=O)CC2C1CC(=O)/C(C)=C/CCC(C)(O)C2O (configuration not stated)
4. Cc1c2cc[n+](C)c(C)c2cc2c1[nH]c1ccccc12
5. COc1cc(C(=O)N2CCN(C(=O)c3cc(OC)c(OC)c(OC)c3)C2=S)cc(OC)c1OC
6. CC1CC2CCCC(O)=C2C(=O)O1 (configuration not stated)
7. CCOC(=O)c1ccc(/C(C)=N/NC(N)=S)cc1
8. C=CCc1cc(-c2nc(=S)[nH][nH]2)ccc1N=NNc1ccc(C(=O)O)cc1

output:
1: 57.1 µM; 2: > 30.1 µM; 3: 6.2 µM; 4: 75.2 µM; 5: 58.4 µM; 6: > 100 µM; 7: > 100 µM; 8: > 100 µM

Each compound below has a reported value. Please supply its TGI.
1. O=C(O)c1ccccc1CC(Cc1ccc2c(c1)CCC2)C(=O)O (configuration not stated)
2. COc1cc2c(cc1OC)C1C3CCCCC3CCN1CC2 (configuration not stated)
3. CN(C)CC[C@H](CSc1ccccc1)Nc1ccc(S(=O)(=O)NC(=O)c2ccc(N3CCN(Cc4ccccc4-c4ccc(Cl)cc4)CC3)cc2)cc1[N+](=O)[O-]
4. COc1ccc2c(c1OCC(=O)O)C(=O)C(CCC(=O)O)CC2 (configuration not stated)

output:
> 100 µM
> 100 µM
2.64 µM
> 100 µM

Return reported TGI values for all items listed beneath this line.
1. COc1cc(O)c2c(c1)C(=O)c1cc3c(c(O)c1C2=O)C(OC1OC(C)C(OC)C(O)C1OC)C(OC)C(C)(O)C3=O (configuration not stated)
2. Cc1nc(N)sc1N=Nc1ccccc1Br

output:
1: 12.2 µM; 2: > 100 µM
